Reference for the values: the Human Domainome abundance scans (Beltran et al. 2025)

B1: POU domain, class 6, transcription factor 2, residues 609 to 663; numbered along this chain, P78424 (parent)
chain: KRRTSFTPQALEILNAHFEKNTHPSGQEMTEIAEKLNYDREVVRVWFCNKRQALK

- Variants of: B1
- Measurement protocol: abundance fitness (aPCA) (normalised: wild type 0, dead -1); higher = more abundant; growth selection in yeast, the domain comes from the species named
- Run conditions: Homo sapiens
Assay endpoint: abundance fitness
Returns: the value as a bare number; no unit string appended.

input: Give me measured abundance fitness, please, for this variant: KRRTSFNPQALEILNAHFEKNTHPSGQEMTEIAEKLNYDREVVRVWFCNKRQALK [T7N]
output: -0.303

input: Complete the entry with abundance fitness for KRRTSFTPQALEILNAHFEKNTHPSGQEMTEIAEKLNYDRVVVRVWFCNKRQALK [E41V]
output: -0.496

input: Assign abundance fitness to the following record: KRKTSFTPQALEILNAHFEKNTHPSGQEMTEIAEKLNYDREVVRVWFCNKRQALK [R3K]
output: -0.009

input: Consider the variant KRRTSFTPQALEILNAHFEKNTAPSGQEMTEIAEKLNYDREVVRVWFCNKRQALK [H23A] and give its recorded abundance fitness.
output: -0.062

input: Look up and report measured abundance fitness for this entry: KRRTSFTPTALEILNAHFEKNTHPSGQEMTEIAEKLNYDREVVRVWFCNKRQALK [Q9T]
output: -0.106

input: # return recorded abundance fitness for entry KRRTSFTPQALEILNAHFEPNTHPSGQEMTEIAEKLNYDREVVRVWFCNKRQALK [K20P]
output: -0.936

input: Answer with the recorded abundance fitness for the variant listed here: KRRTSFTPQALDILNAHFEKNTHPSGQEMTEIAEKLNYDREVVRVWFCNKRQALK [E12D]
output: -0.002

input: Give abundance fitness for the following variant: KRRTSFTPQALEILNAHFEKNTHPSGQEMTEIAEKLNYDREVVRVWLCNKRQALK [F47L]
output: -0.782

input: Kindly indicate its recorded abundance fitness. Item: KRRMSFTPQALEILNAHFEKNTHPSGQEMTEIAEKLNYDREVVRVWFCNKRQALK [T4M]
output: -0.148

input: Specify abundance fitness for KRRTSFTPQALEILNAHFEKNTHPSGQEMTEIAEKLNYDREVVRVWFCNPRQALK [K50P] and stop.
output: -1.19

input: Identify measured abundance fitness corresponding to KRRTSFTPQALEILNAHFEKNTHPSGQEMTEIAEKLNYDRRVVRVWFCNKRQALK [E41R]
output: -0.107

input: Entry KRRTSFTPQAHEILNAHFEKNTHPSGQEMTEIAEKLNYDREVVRVWFCNKRQALK [L11H] needs its abundance fitness filled in; supply it.
output: -0.482

input: Output measured abundance fitness for this item: KRRTSFTPQALEILNAHFEKNTHPSGQEMTEIAEKLNYDREVVRVWFCNKRFALK [Q52F]
output: -0.171
